Biological target: human SST4 receptor (H-SST4) (Homo sapiens, UniProt P31391)
Construct: gene SSTR4; H4 cells (Perkin Elmer) for cAMP
Sequence (P31391 whole entry): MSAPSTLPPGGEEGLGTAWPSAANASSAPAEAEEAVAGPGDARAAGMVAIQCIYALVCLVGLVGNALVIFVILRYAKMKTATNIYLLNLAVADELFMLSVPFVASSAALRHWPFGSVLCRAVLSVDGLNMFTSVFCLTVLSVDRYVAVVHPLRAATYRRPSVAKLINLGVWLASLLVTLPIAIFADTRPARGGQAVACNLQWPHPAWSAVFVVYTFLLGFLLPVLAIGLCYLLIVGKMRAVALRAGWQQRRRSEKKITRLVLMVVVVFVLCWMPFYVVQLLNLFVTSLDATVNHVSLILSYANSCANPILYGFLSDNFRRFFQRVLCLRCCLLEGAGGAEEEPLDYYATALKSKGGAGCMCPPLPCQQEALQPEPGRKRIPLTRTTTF
Assay: radioligand competition, CHO-K1 membranes, […]-Tyr3-somatostatin-14
Format: binding
Conditions: read-out: Mean (±SEM) Ki values (nM) / H-SST4 receptor
endpoint_name: Ki (nM)
Field format: number, assumed nM, no unit text.

**Q:** Which Ki value belongs to `Cc1ccc(S(=O)(=O)N[C@@H](CCN)C(=O)N[C@@H](Cc2ccccc2)C(N)=O)c2ccccc12` ?
**A:** 0.56

====

Molecular target: human somatostatin receptor type 5 (H-SST5) (Homo sapiens, UniProt P35346)
Construct: gene SSTR5; stably expressed in CHO-K1, membranes from Perkin Elmer; printed catalogue number ES-522-M400UA is the same as for type 3 (likely misprint)
Sequence (P35346 whole entry): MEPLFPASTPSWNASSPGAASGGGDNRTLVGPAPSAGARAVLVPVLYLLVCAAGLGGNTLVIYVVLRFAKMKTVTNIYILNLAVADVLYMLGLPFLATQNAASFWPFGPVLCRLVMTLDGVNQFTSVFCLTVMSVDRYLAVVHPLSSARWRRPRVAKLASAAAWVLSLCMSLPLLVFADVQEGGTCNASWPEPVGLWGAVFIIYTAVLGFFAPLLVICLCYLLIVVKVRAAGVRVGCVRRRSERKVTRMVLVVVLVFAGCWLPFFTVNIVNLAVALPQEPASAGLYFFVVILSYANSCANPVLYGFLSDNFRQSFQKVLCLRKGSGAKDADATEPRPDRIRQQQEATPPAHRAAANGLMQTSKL
Experiment: radioligand competition, CHO-K1 membranes, […]-Tyr3-somatostatin-14
Type: binding
Details: read-out: Mean (±SEM) Ki values (nM) / H-SST5 receptor
endpoint_name: Ki

**Q:** Requested field: Ki. Item: `Cc1ccc(S(=O)(=O)N[C@@H](CCN)C(=O)N[C@@H](Cc2ccccc2)C(N)=O)c2ccccc12`
**A:** 468 nM

====

Target: rat SST4 receptor (R-SST4) (Rattus norvegicus)
Construct: gene Sstr4; H4 cells for cAMP
Sequence (P30937 whole entry): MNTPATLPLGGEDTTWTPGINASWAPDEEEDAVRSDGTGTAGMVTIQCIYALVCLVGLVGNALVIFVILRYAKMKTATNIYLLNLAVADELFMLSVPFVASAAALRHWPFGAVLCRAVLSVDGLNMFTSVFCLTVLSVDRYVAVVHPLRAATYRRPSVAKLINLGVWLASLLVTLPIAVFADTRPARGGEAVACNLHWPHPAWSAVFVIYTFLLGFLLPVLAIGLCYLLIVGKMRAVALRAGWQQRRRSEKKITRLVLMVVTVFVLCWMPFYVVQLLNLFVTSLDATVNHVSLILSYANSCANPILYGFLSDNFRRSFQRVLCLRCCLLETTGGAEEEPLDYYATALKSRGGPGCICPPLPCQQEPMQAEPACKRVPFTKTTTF
Test: LANCE cAMP, inhibition of forskolin-stimulated cAMP, H4 cells
Type: cell-based
Conditions: read-out: Mean (±SEM) IC50 values (nM) / R-SST4
endpoint_name: IC50 (nM)
Express it in nM; write the number only.

**Q:** Need IC50, item `Cc1ccc(S(=O)(=O)N[C@@H](CCN)C(=O)N[C@@H](Cc2ccccc2)C(N)=O)c2ccccc12`
**A:** 0.07

====

Target: human somatostatin receptor type 2 (H-SST2) (Homo sapiens, UniProt P30874)
Construct: gene SSTR2; stably expressed in CHO-K1, membranes from Perkin Elmer
Sequence (P30874 whole entry): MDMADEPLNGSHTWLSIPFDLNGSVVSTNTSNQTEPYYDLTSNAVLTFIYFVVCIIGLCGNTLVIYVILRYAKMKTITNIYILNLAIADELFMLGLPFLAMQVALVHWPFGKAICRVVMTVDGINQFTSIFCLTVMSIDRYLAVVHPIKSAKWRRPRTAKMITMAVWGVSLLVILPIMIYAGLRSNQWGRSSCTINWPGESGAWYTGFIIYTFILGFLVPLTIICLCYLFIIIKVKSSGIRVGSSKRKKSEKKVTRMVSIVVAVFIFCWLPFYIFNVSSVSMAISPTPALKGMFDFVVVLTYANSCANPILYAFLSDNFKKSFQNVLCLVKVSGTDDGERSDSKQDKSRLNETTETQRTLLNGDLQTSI
Test: radioligand competition, CHO-K1 membranes, […]-Tyr3-somatostatin-14
Assay type: binding
Settings: read-out: Mean (±SEM) Ki values (nM) / H-SST2 receptor
endpoint_name: Ki

**Q:** # query: Ki of entry `Cc1ccc(S(=O)(=O)N[C@@H](CCN)C(=O)N[C@@H](Cc2ccccc2)C(N)=O)c2ccccc12`
**A:** 25100 nM

====

Target: rat SST4 receptor (R-SST4) (Rattus norvegicus)
Construct: gene Sstr4; H4 cells for cAMP
Test: radioligand competition, CHO-K1 membranes, […]-Tyr3-somatostatin-14
Assay type: binding
Conditions: read-out: Mean (±SEM) Ki values (nM) / R-SST4 receptor
endpoint_name: Ki (nM)
Value expressed in nM; do not type the unit.

**Q:** Entry `Cc1ccc(S(=O)(=O)N[C@@H](CCN)C(=O)N[C@@H](Cc2ccccc2)C(N)=O)c2ccccc12` has what Ki?
**A:** 0.89
